- ASSAY_METHOD_TEXT: Effect of co-administered extracts on the pharmacokinetics of theophylline in rats
- CONDITION_DETAILS: male, Wistar, rat, in vivo, po, Cmax of Theophylline, Mean, Group 2 (CRE pretreatment); rats; mean of 6 series (column A)
PROPERTY_MEASURED: Cmax (µg/mL)
Give bare numbers, in µg/mL.

Entry under review: Cn1c(=O)c2[nH]cnc2n(C)c1=O [Theophylline, 1,3-dimethylxantin] . Reported Cmax?
169

====

- ASSAY_METHOD_TEXT: Effect of co-administered extracts on the pharmacokinetics of theophylline in rats
- CONDITION_DETAILS: male, Wistar, rat, in vivo, Concentration of Theophylline in Rat Serum, Mean, Group 2 (CRE pretreatment 3 days); aminophylline 240 mg/kg p.o.; 240 min; mean n=6
PROPERTY_MEASURED: concentration at 240 min

Which concentration at 240 min is listed for Cn1c(=O)c2[nH]cnc2n(C)c1=O [Theophylline, 1,3-dimethylxantin] ?
103 µg/mL
